Taken from PubChem BioAssay (NCI).

test system: SNB-75 CNS; assay: NCI tumour cell line growth inhibition, 48 h
Overview of reported TGI across a group of compounds:

Worked set:
>  <CHEMICAL STRUCTURE>
CN(C)C(=O)Nc1c([N+](=O)[O-])cc(C(F)(F)F)cc1[N+](=O)[O-]

>  <MEASUREMENT KIND>
TGI

>  <RESULT>
> 100 µM

$$$$
>  <CHEMICAL STRUCTURE>
O=C(CSc1nccc(=O)[nH]1)c1ccccc1

>  <MEASUREMENT KIND>
TGI

>  <RESULT>
> 100 µM

$$$$

Now for the compound whose TGI we want.
Qu. Identify TGI associated with the compound "CCC1=C(C)c2cc3[n-]c(cc4nc(c(C=O)c5[n-]c(cc1n2)c(C)c5CC)C(C)=C4CC)c(C)c3CC.[Ni+2]"
Ans. > 100 µM

* * *

tested on: BT-549 breast; experiment: NCI tumour cell line growth inhibition, 48 h
Reported TGI is given for each of the following compounds.

>  <COMPOUND>
CCCCCC(/C=C/C1CCC(=O)C1)OCOCCOC (stereo not given)

>  <RESULT>
> 71 µM

$$$$

Qu. Could you please provide reported TGI for "Cc1c(C(=O)O)nc(/C=C/C(=O)O)[nH]c1=O" ? Thanks!
Ans. > 100 µM

Qu. Check the records and state TGI for CN1C(=O)N(C)C2C1NN=c1s/c(=C\c3ccccc3F)c(=O)n12 (stereo not given)
Ans. > 100 µM

Qu. For the compound "C[C@H](O)CNc1cc(-c2[nH]c3cccnc3c2-c2ccc(F)cc2)ccn1" , report TGI.
Ans. > 25 µM

Qu. Note down TGI recorded for "Brc1ccc2[nH]cc([C@H]3CN[C@@H](c4c[nH]c5ccc(Br)cc45)CN3)c2c1"
Ans. > 62 µM

* * *

test system: HCT-116 colon; assay: NCI tumour cell line growth inhibition, 48 h
MEASUREMENT KIND: TGI

>  <COMPOUND>
CC1(C)COC2(OC1)C1=NS(=O)(=O)CC13CCC2C3(C)C (stereo not drawn)

>  <TGI>
> 100 µM

$$$$
>  <COMPOUND>
Cc1cc(C)c(C2CC(O)C(CO)O2)cc1C (stereo not drawn)

>  <TGI>
> 100 µM

$$$$

Could you now look at the following compound, please?
Qu. Supply measured TGI of "CCc1nnc(CC)n1-n1c(Cc2ccccc2)n[nH]c1=O" in your reply.
Ans. > 100 µM

* * *

test system: HOP-62 NSCLC; assay: NCI tumour cell line growth inhibition, 48 h
Property: TGI; scope: individual molecules

>  <MOLECULE>
Oc1c(-c2ccccc2)nc2ccccn12

>  <MEASUREMENT KIND>
TGI

>  <RESULT>
> 100 µM

$$$$
>  <MOLECULE>
COc1ccc2cc(C(=O)Nc3ccc(O)c(C(=O)O)c3)ccc2c1OC

>  <MEASUREMENT KIND>
TGI

>  <RESULT>
> 100 µM

$$$$
>  <MOLECULE>
Cc1nnc(N)nc1/C=C\c1ccc(N(C)C)cc1

>  <MEASUREMENT KIND>
TGI

>  <RESULT>
> 100 µM

$$$$
>  <MOLECULE>
CCCCCCCc1c(Cl)nc(Cl)nc1Cl

>  <MEASUREMENT KIND>
TGI

>  <RESULT>
33.2 µM

$$$$
>  <MOLECULE>
CC(C)OC(=O)c1ccc(CCc2cc(O)c(Br)cc2O)cc1

>  <MEASUREMENT KIND>
TGI

>  <RESULT>
24.7 µM

$$$$

Qu. Using known records, supply TGI for "COc1ccc2nccc(NCCCN3CCN(CCCNc4ccnc5ccc(OC)cc45)CC3)c2c1"
Ans. 4.4 µM

Qu. Given the molecule COP1(=O)OCc2cnccc2O1 (stereo not drawn) , write its reported TGI.
Ans. > 100 µM

Qu. Provide measured TGI value, entry: O=C1OC(c2cccc(C(F)(F)F)c2)c2ccc3ccccc3c21 (stereo not drawn)
Ans. > 100 µM

Qu. Given the molecule O=P(O)(O)OC1OC(CO)C(O)C(O)C1O (stereo not drawn) , write its reported TGI.
Ans. > 100 µM

Qu. Answer with reported TGI of C=C(CN(C)C)C1(c2ccccc2)CC2(CCCC2)C(=O)O1 (stereo not drawn)
Ans. > 100 µM

* * *

system: SW-620 colon; experiment: NCI tumour cell line growth inhibition, 48 h
MEASUREMENT KIND: GI50

Before answering, review these 3 worked examples.
>  <MOLECULE>
C[C@H](O)CNc1cc(-c2[nH]c3cccnc3c2-c2ccc(F)cc2)ccn1

>  <MEASUREMENT KIND>
GI50

>  <RESULT>
> 25 µM

$$$$
>  <MOLECULE>
[Co+2].[O-]c1ccccc1C=NCc1ccccc1.[O-]c1ccccc1C=NCc1ccccc1

>  <MEASUREMENT KIND>
GI50

>  <RESULT>
41.4 µM

$$$$
>  <MOLECULE>
CCN(CC)CCNC(=O)c1cn2ncnc(Oc3ccc(NC(=O)Nc4ccc(Cl)c(C(F)(F)F)c4)cc3)c2c1C

>  <MEASUREMENT KIND>
GI50

>  <RESULT>
2.23 µM

$$$$

Read the next record carefully.
Qu. Read the entry COc1ccc2c(c1)OCC1c3cc(O)ccc3OC21 (centres undefined) and write its reported GI50.
Ans. > 100 µM

* * *

test system: SK-MEL-2 melanoma; assay: NCI tumour cell line growth inhibition, 48 h
MEASUREMENT KIND: TGI

These solved cases illustrate the format of a correct answer.
>  <MOLECULE>
N#CC(/C(=N/N=C(N)N)C(=O)Nc1ccccc1[N+](=O)[O-])c1nc(-c2ccc([N+](=O)[O-])cc2)cs1 (stereo not drawn)

>  <TESTED SYSTEM>
SK-MEL-2 melanoma

>  <TGI>
> 100 µM

$$$$
>  <MOLECULE>
O=C1OC(c2cccc(C(F)(F)F)c2)c2ccc3ccccc3c21 (stereo not drawn)

>  <TESTED SYSTEM>
SK-MEL-2 melanoma

>  <TGI>
> 100 µM

$$$$
>  <MOLECULE>
CC1CC(C)CN(S(=O)(=O)c2cc(Cl)c(Oc3ccc([N+](=O)[O-])cc3Cl)c(Cl)c2)C1 (stereo not drawn)

>  <TESTED SYSTEM>
SK-MEL-2 melanoma

>  <TGI>
> 100 µM

$$$$
>  <MOLECULE>
CS(=O)(=O)Nc1ccc(Nc2c3ccccc3nc3cc(N)ccc23)cc1

>  <TESTED SYSTEM>
SK-MEL-2 melanoma

>  <TGI>
7.04 µM

$$$$

Qu. Give TGI for "CC#CC(OCC)(OCC)OCC"
Ans. > 100 µM

Qu. Give me measured TGI, please, for this molecule: "Cc1ccccc1C1=C/C(=C(\SS/C(C(=O)c2ccc(OCC(=O)O)c(Cl)c2Cl)=C2\C=C(c3ccccc3C)SS2)C(=O)c2ccc(OCC(=O)O)c(Cl)c2Cl)SS1"
Ans. 42.3 µM

Qu. Consider the molecule CN1C(=O)N(C)C2C1NN=c1s/c(=C\c3ccccc3F)c(=O)n12 (stereo not drawn) . State its measured TGI.
Ans. > 100 µM

Qu. Report TGI, nothing else, for this molecule: "CNN1C(=O)c2c(N)c(C#N)c(-c3ccccc3)c(-c3ccccc3)c2C1=O"
Ans. > 100 µM

Qu. Specify reported TGI for the molecule shown: "CC1=C(C(=O)Nc2cc(F)c(F)cc2F)C(c2ccc3c(c2)OCO3)C(C(=O)Nc2cc(F)c(F)cc2F)=C(C)N1"
Ans. 46.7 µM

Qu. Please indicate TGI recorded for "O=C(Nc1ccc(Cl)cc1)Nc1ccc(Oc2nncc3ccccc23)cc1"
Ans. 3.65 µM

Qu. Identify the reported TGI for the following entry. CC(NNC(=S)N1CCCCCC1)c1cccnn1 (stereo not drawn)
Ans. > 78.8 µM

Qu. Complete the entry with TGI for "Oc1c(-c2ccccc2)nc2ccccn12"
Ans. > 100 µM

Qu. Tell me its TGI given "O=c1c(O)c(-c2ccccc2)n(O)c2ccc(Cl)cc12" as the entry.
Ans. 58.6 µM

* * *

test system: EKVX NSCLC; assay: NCI tumour cell line growth inhibition, 48 h
# TGI values compiled below

Qu. Give reported TGI value for "O=c1cc(-c2ccccc2)[nH]c2ccc(N3CCCCC3)cc12"
Ans. > 100 µM

* * *

tested on: OVCAR-5 ovarian; assay: NCI tumour cell line growth inhibition, 48 h
MEASUREMENT KIND: TGI

Qu. Complete the entry with TGI for CC(=O)NC(Cc1cnc[nH]1)C(=O)N1CCCC1C(N)=O (configuration not stated)
Ans. > 100 µM

Qu. Let me know recorded TGI for "Cc1nc2c([nH]c1C)c(O)cc1c3c(nc12)C(=O)CCC3" , thanks.
Ans. > 100 µM

Qu. // fetch TGI given entry "Cc1cc(C)c(C#N)c(SCC(=O)c2sc3c(C#N)c(C)cc(C)[n+]3c2[O-])n1"
Ans. > 100 µM

Qu. Kindly indicate its recorded TGI. Item: "CCOc1cc(C(c2c(O)c3ccccc3oc2=O)c2c(O)c3ccccc3oc2=O)ccc1OC"
Ans. 40.1 µM

Qu. Dear colleague, please send me the reported TGI for "O=C(/C=C(\N=P(c1ccccc1)(c1ccccc1)c1ccccc1)C(F)(F)C(F)(F)C(F)(F)C(F)(F)C(F)(F)C(F)(F)C(F)(F)F)c1ccccc1" when you can.
Ans. > 100 µM

Qu. Give recorded TGI. "O=C(Nc1ccccc1)c1cc(S(=O)(=O)Nc2nc3ncccc3[nH]2)c(SSc2cc(Cl)c(C(=O)Nc3ccccc3)cc2S(=O)(=O)Nc2nc3ncccc3[nH]2)cc1Cl"
Ans. > 100 µM

Qu. Using the record for "O=C(O[C@H]1CN[C@H](C#Cc2cc3ncnc(Nc4ccc5c(cnn5Cc5ccccc5)c4)c3s2)C1)N1CCOCC1" , state its measured TGI.
Ans. > 25 µM
